system: CYP3A; assay: CYP3A catalytic activity (erythromycin N-demethylation) in mouse liver microsomes; settings: mouse liver microsomes; initial screen n=1; compounds without reported IC50 at 1 µM
quantity: Percent control catalytic activity at estimated IC50
A complete answer gives the number and then names the unit.

Below, each entry is followed by its recorded Percent control catalytic activity at estimated IC50 result.
| molecule | subjectOfTest | result |
| --- | --- | --- |
| COc1cc2c(=O)c3c(O)c([C@@H]4O[C@H](CO[C@@H]5OC[C@](O)(CO)[C@H]5O)[C@@H](O)[C@H](O)[C@H]4O)c(O)cc3oc2cc1O | CYP3A | 92 percent control |
| CC[C@H]1OC(=O)[C@H](C)[C@@H](O[C@H]2C[C@@](C)(OC)[C@@H](O)[C@H](C)O2)[C@H](C)[C@@H](O[C@@H]2O[C@H](C)C[C@H](N(C)C)[C@H]2O)[C@](C)(OC)C[C@@H](C)C(=O)[C@H](C)[C@@H](O)[C@]1(C)O | CYP3A | 89 percent control |

Could you now look at the following molecule, please?
Asked: Query: Percent control catalytic activity at estimated IC50; subject: CC(=O)c1ccccc1O [2'-Hydroxyacetophenone]
Given back: 112 percent control

Values compiled from paper PMC10253456.
